- Test system: T cells
- test-summary: Proliferation inhibition assay on T cells (PBMC, anti-CD3, IL-2)
- Assay type: cell-based, human
- measurement-parameters: Homo sapiens, T-cell, 72 h, IL-2 10 ng/mL
metric-name: log10(IC50) (log10 of the value in nM)

{"compound": "CN(c1ncnc2[nH]ccc12)[C@H]1C[C@@H]2CN(CC(F)(F)F)C[C@@H]2C1", "log10(IC50)": 2.08}
{"compound": "CN(c1ncnc2[nH]ccc12)[C@H]1C[C@@H]2CN(S(=O)(=O)C3CC3)C[C@@H]2C1", "log10(IC50)": 2.93}
{"compound": "C[C@@H](O)C(=O)N1C[C@H]2C[C@H](N(C)c3ncnc4[nH]ccc34)C[C@H]2C1", "log10(IC50)": 2.86}
{"compound": "CN(c1ncnc2[nH]ccc12)[C@H]1C[C@@H]2CN(CCC#N)C[C@@H]2C1", "log10(IC50)": 2.40}
{"compound": "COc1nsc(NC(=O)N2C[C@H]3C[C@H](N(C)c4ncnc5[nH]ccc45)C[C@H]3C2)n1", "log10(IC50)": 1.73}
{"compound": "CCc1nsc(NC(=O)N2C[C@H]3C[C@H](N(C)c4ncnc5[nH]ccc45)C[C@H]3C2)n1", "log10(IC50)": 1.36}
{"compound": "CN(c1ncnc2[nH]ccc12)[C@H]1C[C@@H]2CN(C(=O)Nc3nc(OCC(C)(C)O)ns3)C[C@@H]2C1", "log10(IC50)": 1.73}
{"compound": "CN(c1ncnc2[nH]ccc12)[C@@H]1C[C@@H]2CN(CCC#N)C[C@@H]2C1", "log10(IC50)": 2.92}
{"compound": "CN(c1ncnc2[nH]ccc12)[C@@H]1CC2CNC(=O)CC2C1 (stereo partly shown)", "log10(IC50)": 1.68}
{"compound": "CN(c1ncnc2[nH]ccc12)[C@H]1C[C@H]2CNC(=O)C[C@H]2C1", "log10(IC50)": 1.68}
{"compound": "COc1nsc(NC(=O)N2C[C@H]3C[C@@H](N(C)c4ncnc5[nH]ccc45)C[C@H]3C2)n1", "log10(IC50)": 1.83}
{"compound": "COC(=O)CN1C[C@H]2C[C@H](N(C)c3ncnc4[nH]ccc34)C[C@H]2C1", "log10(IC50)": 2.93}
{"compound": "C[C@H](O)C(=O)N1C[C@H]2C[C@H](N(C)c3ncnc4[nH]ccc34)C[C@H]2C1", "log10(IC50)": 1.46}
{"compound": "CN(c1ncnc2[nH]ccc12)[C@H]1C[C@@H]2CN(C(=O)CO)C[C@@H]2C1", "log10(IC50)": 2.62}
{"compound": "CN(c1ncnc2[nH]ccc12)[C@H]1C[C@@H]2CN(C(=O)CNS(C)(=O)=O)C[C@@H]2C1", "log10(IC50)": 2.95}
{"compound": "CN(c1ncnc2[nH]cc(F)c12)[C@H]1C[C@@H]2CN(C(=O)CO)C[C@@H]2C1", "log10(IC50)": 2.22}

---

- target-desc: JAK1 kinase (Homo sapiens)
- test-summary: Assay for inhibiting JAK1 kinase (in vitro kinase assay)
- Assay type: biochemical
- measurement-parameters: 20 μM ATP; read-out: IC50 (JAK1/Bio)
metric-name: IC50 (nM)

{"smiles-record": "CN(c1ncnc2[nH]ccc12)[C@H]1C[C@@H]2CN(C(=O)Nc3nc(OCC(C)(C)O)ns3)C[C@@H]2C1", "target-desc": "JAK1 kinase (Homo sapiens)", "metric-name": "IC50", "quantitative-result": 0.3}

---

- Test system: human erythroid leukemia cell line TF-1
- test-summary: Proliferation inhibition assay on TF-1 cells mediated by IL-4
- Type: cell-based
- measurement-parameters: 10 ng/mL IL-4, 72 hours
pIC50: −log10 of the molar value.

{"molecule": "CN(c1ncnc2[nH]ccc12)[C@H]1C[C@@H]2CN(C(=O)OC(C)(C)C)C[C@@H]2C1", "pIC50": 6.88}
{"molecule": "CN(c1ncnc2[nH]ccc12)[C@@H]1C[C@@H]2CN(C(=O)Nc3nncs3)C[C@@H]2C1", "pIC50": 6.32}
{"molecule": "CC(=O)N1C[C@H]2C[C@H](N(C)c3ncnc4[nH]ccc34)C[C@H]2C1", "pIC50": 6.29}
{"molecule": "CCc1nsc(NC(=O)N2C[C@H]3C[C@H](N(C)c4ncnc5[nH]ccc45)C[C@H]3C2)n1", "pIC50": 7.57}
{"molecule": "CN(c1ncnc2[nH]ccc12)[C@H]1C[C@@H]2CN(C(=O)Nc3nncs3)C[C@@H]2C1", "pIC50": 6.16}
{"molecule": "CN(c1ncnc2[nH]ccc12)[C@@H]1C[C@@H]2CN(C(=O)OC(C)(C)C)C[C@]2(C)C1 (racemic)", "pIC50": 6.71}
{"molecule": "Cc1noc(N2C[C@H]3C[C@H](N(C)c4ncnc5[nH]ccc45)C[C@H]3C2)n1", "pIC50": 6.29}

---

- target-desc: JAK3 kinase (Homo sapiens)
- Sequence (P52333 whole entry, looked up): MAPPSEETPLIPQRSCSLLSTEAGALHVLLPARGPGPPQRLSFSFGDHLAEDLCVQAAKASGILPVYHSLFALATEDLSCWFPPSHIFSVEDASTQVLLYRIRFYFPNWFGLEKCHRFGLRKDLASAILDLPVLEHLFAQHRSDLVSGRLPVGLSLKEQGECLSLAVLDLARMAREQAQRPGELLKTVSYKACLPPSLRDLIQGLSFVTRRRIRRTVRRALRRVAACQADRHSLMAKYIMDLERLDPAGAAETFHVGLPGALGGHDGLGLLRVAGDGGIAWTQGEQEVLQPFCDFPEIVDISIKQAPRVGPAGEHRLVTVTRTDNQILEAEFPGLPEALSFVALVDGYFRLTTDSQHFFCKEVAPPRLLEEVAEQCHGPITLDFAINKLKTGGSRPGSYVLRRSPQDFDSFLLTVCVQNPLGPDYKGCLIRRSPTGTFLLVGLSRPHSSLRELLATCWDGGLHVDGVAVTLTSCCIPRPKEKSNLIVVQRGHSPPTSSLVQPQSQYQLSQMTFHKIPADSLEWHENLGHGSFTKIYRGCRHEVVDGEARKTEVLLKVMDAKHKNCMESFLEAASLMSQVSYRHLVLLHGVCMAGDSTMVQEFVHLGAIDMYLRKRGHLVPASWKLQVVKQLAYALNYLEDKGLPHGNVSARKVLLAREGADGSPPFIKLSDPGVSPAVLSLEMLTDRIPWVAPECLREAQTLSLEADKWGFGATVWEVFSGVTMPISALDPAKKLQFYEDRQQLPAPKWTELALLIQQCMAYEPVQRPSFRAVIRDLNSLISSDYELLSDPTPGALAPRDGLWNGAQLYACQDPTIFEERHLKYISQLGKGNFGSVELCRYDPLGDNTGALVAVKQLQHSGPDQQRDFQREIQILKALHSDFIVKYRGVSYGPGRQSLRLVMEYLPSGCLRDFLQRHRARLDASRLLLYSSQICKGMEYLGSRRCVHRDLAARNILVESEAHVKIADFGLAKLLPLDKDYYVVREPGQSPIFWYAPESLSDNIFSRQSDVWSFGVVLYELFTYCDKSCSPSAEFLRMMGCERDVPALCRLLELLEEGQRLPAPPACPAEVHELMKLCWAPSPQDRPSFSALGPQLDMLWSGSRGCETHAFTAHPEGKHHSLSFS

{"molecule": "CN(c1ncnc2[nH]ccc12)[C@H]1C[C@@H]2CN(C(=O)Nc3nc(OCC(C)(C)O)ns3)C[C@@H]2C1 [Example 99]", "target-desc": "JAK3 kinase (Homo sapiens)", "measure-unit": "nM", "IC50": 110}

---

- Test system: human erythroid leukemia cell line TF-1
- test-summary: Proliferation inhibition assay on TF-1 cells mediated by IL-4
- Type: cell-based
- measurement-parameters: TF-1, 72 h, 10 ng/mL IL-4, 72 hours

{"smiles-record": "CN(c1ncnc2[nH]ccc12)[C@H]1C[C@@H]2CN(C(=O)Nc3nc(OCC(C)(C)O)ns3)C[C@@H]2C1", "IC50": "44 nM"}
{"smiles-record": "CN(c1ncnc2[nH]ccc12)[C@H]1C[C@@H]2CN(C(=O)CO)C[C@@H]2C1", "IC50": "457 nM"}
{"smiles-record": "CN(c1ncnc2[nH]cc(F)c12)[C@H]1C[C@@H]2CN(C(=O)CO)C[C@@H]2C1", "IC50": "252 nM"}

---

compounds and their reported IC50
- Tested on: human erythroid leukemia cell line TF-1
- test-summary: Proliferation inhibition assay on TF-1 cells mediated by IL-4
- Type: cell-based
- measurement-parameters: 10 ng/mL IL-4, 72 hours

{"compound": "C[C@@H](O)C(=O)N1C[C@H]2C[C@H](N(C)c3ncnc4[nH]ccc34)C[C@H]2C1", "target-desc": "human erythroid leukemia cell line TF-1", "IC50 (nM)": 711}
{"compound": "CN(c1ncnc2[nH]ccc12)C1C[C@@H]2CCN(C(=O)CC#N)C[C@@H]2C1 (stereo partly shown)", "target-desc": "human erythroid leukemia cell line TF-1", "IC50 (nM)": 419}
{"compound": "CN(c1ncnc2[nH]ccc12)C1C[C@@H]2CCN(C(=O)CO)C[C@@H]2C1 (stereo partly shown)", "target-desc": "human erythroid leukemia cell line TF-1", "IC50 (nM)": 123}
{"compound": "CN(c1ncnc2[nH]ccc12)[C@H]1C[C@@H]2CN(C(=O)CC#N)C[C@@H]2C1", "target-desc": "human erythroid leukemia cell line TF-1", "IC50 (nM)": 530}
{"compound": "COc1nsc(NC(=O)N2C[C@H]3C[C@H](N(C)c4ncnc5[nH]ccc45)C[C@H]3C2)n1", "target-desc": "human erythroid leukemia cell line TF-1", "IC50 (nM)": 44}
{"compound": "COc1nsc(NC(=O)N2C[C@H]3C[C@@H](N(C)c4ncnc5[nH]ccc45)C[C@H]3C2)n1", "target-desc": "human erythroid leukemia cell line TF-1", "IC50 (nM)": 546}
{"compound": "CN(c1ncnc2[nH]c(F)cc12)[C@H]1C[C@@H]2CN(C(=O)CO)C[C@@H]2C1", "target-desc": "human erythroid leukemia cell line TF-1", "IC50 (nM)": 539}
{"compound": "COc1nsc(NC(=O)N2CC[C@H]3CC(N(C)c4ncnc5[nH]ccc45)C[C@H]3C2)n1 (stereo partly shown)", "target-desc": "human erythroid leukemia cell line TF-1", "IC50 (nM)": 160}
{"compound": "CN(c1ncnc2[nH]ccc12)[C@H]1C[C@@H]2CN(C(=O)Nc3nc(C4CC4)ns3)C[C@@H]2C1", "target-desc": "human erythroid leukemia cell line TF-1", "IC50 (nM)": 14}
{"compound": "C[C@H](O)C(=O)N1C[C@H]2C[C@H](N(C)c3ncnc4[nH]ccc34)C[C@H]2C1", "target-desc": "human erythroid leukemia cell line TF-1", "IC50 (nM)": 165}

---

- target-desc: JAK2 kinase (Homo sapiens, UniProt O60674)
- Sequence (O60674 whole entry, looked up): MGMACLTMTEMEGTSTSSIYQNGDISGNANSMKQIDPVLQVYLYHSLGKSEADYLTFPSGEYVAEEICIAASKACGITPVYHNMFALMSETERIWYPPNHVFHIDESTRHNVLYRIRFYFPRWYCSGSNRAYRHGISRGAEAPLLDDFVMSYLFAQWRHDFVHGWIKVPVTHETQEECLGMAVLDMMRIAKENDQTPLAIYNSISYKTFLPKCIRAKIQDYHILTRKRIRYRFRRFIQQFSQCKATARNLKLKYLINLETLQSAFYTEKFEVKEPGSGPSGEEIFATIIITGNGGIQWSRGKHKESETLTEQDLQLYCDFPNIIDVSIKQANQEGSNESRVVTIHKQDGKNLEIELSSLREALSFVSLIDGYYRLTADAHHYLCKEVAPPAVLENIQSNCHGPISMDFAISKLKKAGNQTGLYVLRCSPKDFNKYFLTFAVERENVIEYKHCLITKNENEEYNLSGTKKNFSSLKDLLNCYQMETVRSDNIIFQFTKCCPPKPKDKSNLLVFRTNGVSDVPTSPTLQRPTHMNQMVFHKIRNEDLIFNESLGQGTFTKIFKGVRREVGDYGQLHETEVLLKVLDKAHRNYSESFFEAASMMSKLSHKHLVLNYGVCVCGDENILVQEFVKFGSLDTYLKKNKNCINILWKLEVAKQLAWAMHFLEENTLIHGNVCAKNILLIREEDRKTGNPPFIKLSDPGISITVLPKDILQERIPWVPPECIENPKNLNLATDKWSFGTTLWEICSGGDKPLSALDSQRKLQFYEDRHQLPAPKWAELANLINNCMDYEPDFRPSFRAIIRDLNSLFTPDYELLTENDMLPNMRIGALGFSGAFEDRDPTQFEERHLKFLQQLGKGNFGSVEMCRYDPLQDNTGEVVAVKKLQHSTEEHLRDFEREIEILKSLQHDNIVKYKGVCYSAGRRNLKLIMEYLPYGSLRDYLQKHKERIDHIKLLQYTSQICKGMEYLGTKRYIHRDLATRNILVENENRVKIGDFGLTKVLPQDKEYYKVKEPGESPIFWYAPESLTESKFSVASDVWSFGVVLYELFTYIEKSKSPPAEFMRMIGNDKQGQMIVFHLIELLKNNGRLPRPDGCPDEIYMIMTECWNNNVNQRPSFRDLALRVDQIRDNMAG
pIC50: −log10 of the molar value.

{"smiles-record": "CN(c1ncnc2[nH]ccc12)[C@H]1C[C@@H]2CN(C(=O)Nc3nc(OCC(C)(C)O)ns3)C[C@@H]2C1", "target-desc": "JAK2 kinase (Homo sapiens, UniProt O60674)", "pIC50": 8.30}

Value source: patent US10428074B2
